molecular target: Glutathionylspermidine synthase (Crithidia fasciculata) (UniProt P90518); assay: Tested against glutathionylspermidine synthetase (GspS) in Crithidia fasciculata; set-up: concentration or dose not given beside the values; conditions: concentration not given here
Sequence (P90518 whole entry): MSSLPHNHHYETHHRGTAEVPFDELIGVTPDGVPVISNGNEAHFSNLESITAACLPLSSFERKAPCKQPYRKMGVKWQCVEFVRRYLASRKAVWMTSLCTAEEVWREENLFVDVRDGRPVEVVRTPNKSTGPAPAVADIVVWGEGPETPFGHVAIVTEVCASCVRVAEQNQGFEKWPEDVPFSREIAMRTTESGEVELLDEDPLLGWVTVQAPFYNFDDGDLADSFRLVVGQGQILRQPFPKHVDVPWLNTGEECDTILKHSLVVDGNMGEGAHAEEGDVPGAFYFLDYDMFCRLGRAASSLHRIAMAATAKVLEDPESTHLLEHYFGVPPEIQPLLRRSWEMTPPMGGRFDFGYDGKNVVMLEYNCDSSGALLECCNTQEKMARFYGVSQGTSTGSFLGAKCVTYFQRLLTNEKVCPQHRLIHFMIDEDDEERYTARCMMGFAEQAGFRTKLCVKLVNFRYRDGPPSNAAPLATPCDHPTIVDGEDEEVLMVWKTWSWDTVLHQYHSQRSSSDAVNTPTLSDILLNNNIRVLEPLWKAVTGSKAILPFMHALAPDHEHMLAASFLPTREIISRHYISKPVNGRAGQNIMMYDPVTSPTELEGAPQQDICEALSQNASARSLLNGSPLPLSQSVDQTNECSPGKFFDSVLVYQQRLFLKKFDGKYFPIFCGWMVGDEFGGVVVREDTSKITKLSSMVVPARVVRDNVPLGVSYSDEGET
Numbered stars: 1 amine (or outer) side, 2 acyl side, 3 side chain; on linkers, the order of the positions; unused ones are H or OH. Square brackets hold non-standard residues; d marks the D form. Peptide text beside a SMILES is read from it. γGlu = O=C(O)[C@H](CCC(=O)[*:2])N[*:1]; Dab = NCC[C@H](N)C(=O)O; Nva = CCC[C@H](N)C(=O)O; Dap = NC[C@H](N)C(=O)O
observation.type: inhibition

{"compound": "CCC[C@H](NC(=O)[C@H](CC(C)C)NC(=O)CC[C@H](N)C(=O)O)C(=O)O (γGlu-Leu-[Nva]-OH)", "inhibition": "70%"}

Using the record for CC(C)C[C@H](NC(=O)CC[C@H](N)C(=O)O)C(=O)N[C@@H](CCN)C(=O)O (γGlu-Leu-[Dab]-OH) , report its inhibition.
95%

Follow-up item: CC(C)C[C@H](NC(=O)CC[C@H](N)C(=O)O)C(=O)N[C@@H](CN)C(=O)O (γGlu-Leu-[Dap]-OH)
97%
